Consider the following compounds; for each one, report its inhibition at 1 µM.
- assay.system: LYPLA1 (Mus musculus, UniProt P97823)
- Construct: a complex proteome endogenously expressing LYPLA1/2 was incubated with test compound; from tissue; host or cells: mouse brain, membrane fraction
- Sequence (P97823 whole entry): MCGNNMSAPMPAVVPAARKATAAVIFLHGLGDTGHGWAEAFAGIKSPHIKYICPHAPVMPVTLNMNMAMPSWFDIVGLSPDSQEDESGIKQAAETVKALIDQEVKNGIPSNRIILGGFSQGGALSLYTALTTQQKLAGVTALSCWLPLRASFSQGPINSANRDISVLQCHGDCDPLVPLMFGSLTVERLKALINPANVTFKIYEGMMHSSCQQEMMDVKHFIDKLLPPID
- assay.method.text: Gel-based competitive ABPP in vitro, mouse brain membrane proteome
- Format: biochemical
- recorded.conditions: 1 μM compound, 30 min, one replicate; read-out: LYPLA1 % INH 1 μM
Enter your answer as a number in %; do not include the unit.

# input // returns reported inhibition at 1 µM for input O=C(ON1C(=O)C2CN(CCc3ccccc3)CCN2C1=O)N1CCC(CCc2ccc(Cl)cc2)CC1 (stereo not shown)
# output 25

# input // returns reported inhibition at 1 µM for input CC(C)(C)OC(=O)N1CCN2C(=O)N(OC(=O)N3CCN(CCc4ccccc4)CC3)C(=O)C2C1 (stereo not shown)
# output 0

# input // returns reported inhibition at 1 µM for input CCN(C(=O)C1CCN(C(=O)ON2C(=O)C3CN(C(=O)OC(C)(C)C)CCN3C2=O)CC1)c1ccccc1 (stereo not shown)
# output 10

# input // returns reported inhibition at 1 µM for input CC(C)(C)OC(=O)N1CCN2C(=O)N(OC(=O)N3CCC(CCc4ccc(Cl)cc4)CC3)C(=O)C2C1 (stereo not shown)
# output 80

# input // returns reported inhibition at 1 µM for input CN(C)c1ccc(C(=O)N2CCN3C(=O)N(OC(=O)N4CCC(CCc5ccc(Cl)cc5)CC4)C(=O)C3C2)cc1 (stereo not shown)
# output 75

# input // returns reported inhibition at 1 µM for input O=C(ON1C(=O)C2CN(C(=O)c3ccc(F)c([N+](=O)[O-])c3)CCN2C1=O)N1CCC(CCc2ccc(Cl)cc2)CC1 (stereo not shown)
# output 90

# input // returns reported inhibition at 1 µM for input O=C(ON1C(=O)C2CN(C(=O)N3CCCCC3)CCN2C1=O)N1CCC(CCc2ccc(Cl)cc2)CC1 (stereo not shown)
# output 100

All figures here come from patent US9981972B2.
